Listed here: items and their measured kcat/KM Cath-B.
Target: cathepsin B (Homo sapiens)
Construct: made in house
Experiment: Kinetic parameters of ACC substrates with cathepsin B
Type: biochemical
Settings: Fig. 5B; pH 5.5, 37 °C; cathepsin B 4–15 nM; triplicate, SD below 15%
Non-standard residues stand in square brackets, D forms with d. *: point of attachment. Phe(F5) = N[C@@H](Cc1c(F)c(F)c(F)c(F)c1F)C(=O)O; ACC = NC(=O)Cc1cc(=O)oc2cc(N*)ccc12; hArg = N=C(N)NCCCC[C@H](N)C(=O)O
READOUT: kcat/KM Cath-B (M⁻¹ s⁻¹)

INSERT INTO results (substance, assayed_target, readout, measured) VALUES
  ('Ac-H[dV][Phe(F5)][hArg]-{ACC} (SMILES CC(=O)N[C@@H](Cc1c[nH]cn1)C(=O)N[C@@H](C(=O)N[C@@H](Cc1c(F)c(F)c(F)c(F)c1F)C(=O)N[C@@H](CCCCNC(=N)N)C(=O)Nc1ccc2c(CC(N)=O)cc(=O)oc2c1)C(C)C)', 'cathepsin B (Homo sapiens)', 'kcat/KM Cath-B', 187),
  ('Ac-[hArg][dV][Phe(F5)]R-{ACC} (SMILES CC(=O)N[C@@H](CCCCNC(=N)N)C(=O)N[C@@H](C(=O)N[C@@H](Cc1c(F)c(F)c(F)c(F)c1F)C(=O)N[C@@H](CCCNC(=N)N)C(=O)Nc1ccc2c(CC(N)=O)cc(=O)oc2c1)C(C)C)', 'cathepsin B (Homo sapiens)', 'kcat/KM Cath-B', 242);
